Tested on: 282377-053-R-J1-PDC complex spheroids, viability
Test: Anticancer human tumor 282377-053-R-J1-PDC patient-derived colon adenocarcinoma cell line growth inhibition [GQUAD]
Conditions: second compound 3.16 µM; first compound 0.00999 µM; hits give low values
Each record here notes measured viability, T/C.
Form entry: value (%) — number only.

# example entries with known answers
- Cn1ncnc1[C@H]1c2n[nH]c(=O)c3cc(F)cc(c23)N[C@@H]1c1ccc(F)cc1 + Cc1[nH]c2ccc(F)cc2c1-c1nc2c3cccnc3c3ncccc3c2[nH]1: 71.8
- Cc1[nH]c2ccccc2c1CCNCc1ccc(/C=C/C(=O)NO)cc1 + Cc1cnc(CNC(=O)c2c(=O)c3ccc(N4CCCN(C)CC4)nc3n3c2sc2ccccc23)cn1: 38.5

Here is another molecule to look at.
GET /values?readout=viability, T/C&item= CC[C@@]1(O)C(=O)OCc2c1cc1n(c2=O)Cc2cc3c(CN(C)C)c(O)ccc3nc2-1 + Cc1cnc(CNC(=O)c2c(=O)c3ccc(N4CCCN(C)CC4)nc3n3c2sc2ccccc23)cn1
50.1

====

Test system: 282377-053-R-J1-PDC complex spheroids, viability
Experiment: Anticancer human tumor 282377-053-R-J1-PDC cell line growth inhibition [GQUAD]
Details: second compound 1 µM; first compound 3.16 µM; hits give low values
Each record here notes measured viability, T/C.
Form entry: value (%) — number only.

# example entries with known answers
* C=CC(=O)N1CCN(c2nc(=O)n(-c3c(C)ccnc3C(C)C)c3nc(-c4c(O)cccc4F)c(F)cc23)C(C)C1 (stereo unspecified) + Cc1cnc(CNC(=O)c2c(=O)c3ccc(N4CCCN(C)CC4)nc3n3c2sc2ccccc23)cn1 | 76
* C#Cc1c(F)ccc2cc(O)cc(-c3ncc4c(N5CC6CCC(C5)N6)nc(OCC56CCCN5CC(F)C6)nc4c3F)c12 (stereo unspecified) + Cc1cnc(CNC(=O)c2c(=O)c3ccc(N4CCCN(C)CC4)nc3n3c2sc2ccccc23)cn1 | 71.8
* COc1ccc([C@@H](O)c2cc(-c3ncnc4cc(N5CCOCC5)ccc34)c(F)cc2Cl)nn1 + Cc1cnc(CNC(=O)c2c(=O)c3ccc(N4CCCN(C)CC4)nc3n3c2sc2ccccc23)cn1 | 41.3

GET /values?readout=viability, T/C&item= O=C(c1cc(Cc2n[nH]c(=O)c3ccccc23)ccc1F)N1CCN(C(=O)C2CC2)CC1 + Cc1cnc(CNC(=O)c2c(=O)c3ccc(N4CCCN(C)CC4)nc3n3c2sc2ccccc23)cn1
60.8

GET /values?readout=viability, T/C&item= CCCS(=O)(=O)Nc1ccc(F)c(C(=O)c2c[nH]c3ncc(-c4ccc(Cl)cc4)cc23)c1F + CN(C)c1ccc(Nc2c3ccc(NC(=O)CCN4CCCC4)cc3nc3cc(NC(=O)CCN4CCCC4)ccc23)cc1
59.2

GET /values?readout=viability, T/C&item= CC(=O)O[C@H]1C(=O)[C@@]2(C)[C@H]([C@H](OC(=O)c3ccccc3)[C@]3(O)C[C@H](OC(=O)[C@H](O)[C@@H](NC(=O)c4ccccc4)c4ccccc4)C(C)=C1C3(C)C)[C@]1(OC(C)=O)CO[C@@H]1C[C@@H]2O + CN(C)c1ccc(Nc2c3ccc(NC(=O)CCN4CCCC4)cc3nc3cc(NC(=O)CCN4CCCC4)ccc23)cc1
26.8

GET /values?readout=viability, T/C&item= CCCS(=O)(=O)Nc1ccc(F)c(C(=O)c2c[nH]c3ncc(-c4ccc(Cl)cc4)cc23)c1F + Cc1[nH]c2ccc(F)cc2c1-c1nc2c3cccnc3c3ncccc3c2[nH]1
23.9

====

System: 282377-053-R-J1-PDC complex spheroids, viability
Test: Anticancer human tumor 282377-053-R-J1-PDC cell line growth inhibition [GQUAD];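 further: spheroids exposed to compounds for 7 days before readout; percent of vehicle DMSO control viability with 100% = untreated-like growth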
Details: second compound 1 µM; first compound 10 µM; hits give low values
readout-name: viability, T/C (%)
Form entry: value (%) — number only.

GET /values?readout=viability, T/C&item= COc1cc(C2c3cc4c(cc3C(OC3OC5COC(C)OC5C(O)C3O)C3COC(=O)C23)OCO4)cc(OC)c1O (stereo not drawn) + CN(C)c1ccc(Nc2c3ccc(NC(=O)CCN4CCCC4)cc3nc3cc(NC(=O)CCN4CCCC4)ccc23)cc1
60.8

GET /values?readout=viability, T/C&item= C=CCn1c(=O)c2cnc(Nc3ccc(N4CCN(C)CC4)cc3)nc2n1-c1cccc(C(C)(C)O)n1 + Cc1cnc(CNC(=O)c2c(=O)c3ccc(N4CCCN(C)CC4)nc3n3c2sc2ccccc23)cn1
13.6

GET /values?readout=viability, T/C&item= COc1ccc([C@@H](O)c2cc(-c3ncnc4cc(N5CCOCC5)ccc34)c(F)cc2Cl)nn1 + Cc1[nH]c2ccc(F)cc2c1-c1nc2c3cccnc3c3ncccc3c2[nH]1
57.4

====

Test system: 282377-053-R-J1-PDC complex spheroids, viability
Assay: Anticancer human tumor 282377-053-R-J1-PDC cell line growth inhibition [GQUAD];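 further: spheroids exposed to compounds for 7 days before readout; percent of vehicle DMSO control viability with 100% = untreated-like growth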
Conditions: second compound 10 µM; first compound 0.00999 µM; hits give low values
Each record here notes measured viability, T/C.
Form entry: value (%) — number only.

• Cc1[nH]c2ccccc2c1CCNCc1ccc(/C=C/C(=O)NO)cc1 + Cc1[nH]c2ccc(F)cc2c1-c1nc2c3cccnc3c3ncccc3c2[nH]1 = 52.2

GET /values?readout=viability, T/C&item= CCc1c2c(nc3ccc(O)cc13)-c1cc3c(c(=O)n1C2)COC(=O)[C@]3(O)CC + Cc1cnc(CNC(=O)c2c(=O)c3ccc(N4CCCN(C)CC4)nc3n3c2sc2ccccc23)cn1
38.9

GET /values?readout=viability, T/C&item= Cc1[nH]c2ccccc2c1CCNCc1ccc(/C=C/C(=O)NO)cc1 + Cc1cnc(CNC(=O)c2c(=O)c3ccc(N4CCCN(C)CC4)nc3n3c2sc2ccccc23)cn1
47

GET /values?readout=viability, T/C&item= CC[C@@]1(O)C(=O)OCc2c1cc1n(c2=O)Cc2cc3c(CN(C)C)c(O)ccc3nc2-1 + Cc1[nH]c2ccc(F)cc2c1-c1nc2c3cccnc3c3ncccc3c2[nH]1
48.3

GET /values?readout=viability, T/C&item= CCc1c2c(nc3ccc(O)cc13)-c1cc3c(c(=O)n1C2)COC(=O)[C@]3(O)CC + Cc1[nH]c2ccc(F)cc2c1-c1nc2c3cccnc3c3ncccc3c2[nH]1
12.5

GET /values?readout=viability, T/C&item= Cn1ncnc1[C@H]1c2n[nH]c(=O)c3cc(F)cc(c23)N[C@@H]1c1ccc(F)cc1 + CN(C)c1ccc(Nc2c3ccc(NC(=O)CCN4CCCC4)cc3nc3cc(NC(=O)CCN4CCCC4)ccc23)cc1
91.6

====

Each record here notes measured viability, T/C.
Test system: 282377-053-R-J1-PDC complex spheroids, viability
Assay: Anticancer human tumor 282377-053-R-J1-PDC cell line growth inhibition [GQUAD];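 further: spheroids exposed to compounds for 7 days before readout; percent of vehicle DMSO control viability with 100% = untreated-like growth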
Conditions: second compound 3.16 µM; first compound 0.316 µM; hits give low values
Form entry: value (%) — number only.

• COc1cc(C2c3cc4c(cc3C(OC3OC5COC(C)OC5C(O)C3O)C3COC(=O)C23)OCO4)cc(OC)c1O (centres undefined) + Cc1[nH]c2ccc(F)cc2c1-c1nc2c3cccnc3c3ncccc3c2[nH]1 = 73.5
• CC[C@@]1(O)C(=O)OCc2c1cc1n(c2=O)Cc2cc3c(CN(C)C)c(O)ccc3nc2-1 + Cc1cnc(CNC(=O)c2c(=O)c3ccc(N4CCCN(C)CC4)nc3n3c2sc2ccccc23)cn1 = 47.3

GET /values?readout=viability, T/C&item= CC(=O)O[C@H]1C(=O)[C@@]2(C)[C@H]([C@H](OC(=O)c3ccccc3)[C@]3(O)C[C@H](OC(=O)[C@H](O)[C@@H](NC(=O)c4ccccc4)c4ccccc4)C(C)=C1C3(C)C)[C@]1(OC(C)=O)CO[C@@H]1C[C@@H]2O + Cc1[nH]c2ccc(F)cc2c1-c1nc2c3cccnc3c3ncccc3c2[nH]1
66

GET /values?readout=viability, T/C&item= COc1cc(C2c3cc4c(cc3C(OC3OC5COC(C)OC5C(O)C3O)C3COC(=O)C23)OCO4)cc(OC)c1O (centres undefined) + CN(C)c1ccc(Nc2c3ccc(NC(=O)CCN4CCCC4)cc3nc3cc(NC(=O)CCN4CCCC4)ccc23)cc1
120

====

Tested on: 282377-053-R-J1-PDC complex spheroids, viability
Test: Anticancer human tumor 282377-053-R-J1-PDC cell line growth inhibition [GQUAD];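 further: spheroids exposed to compounds for 7 days before readout; percent of vehicle DMSO control viability with 100% = untreated-like growth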
Conditions: second compound 0.316 µM; first compound 0.0999 µM; hits give low values
readout-name: viability, T/C (%)
Form entry: value (%) — number only.

# example entries with known answers
- CC[C@@]1(O)C(=O)OCc2c1cc1n(c2=O)Cc2cc3c(CN(C)C)c(O)ccc3nc2-1 + Cc1[nH]c2ccc(F)cc2c1-c1nc2c3cccnc3c3ncccc3c2[nH]1: 84
- Cn1ncnc1[C@H]1c2n[nH]c(=O)c3cc(F)cc(c23)N[C@@H]1c1ccc(F)cc1 + CN(C)c1ccc(Nc2c3ccc(NC(=O)CCN4CCCC4)cc3nc3cc(NC(=O)CCN4CCCC4)ccc23)cc1: 94.3
- CCc1c2c(nc3ccc(O)cc13)-c1cc3c(c(=O)n1C2)COC(=O)[C@]3(O)CC + CN(C)c1ccc(Nc2c3ccc(NC(=O)CCN4CCCC4)cc3nc3cc(NC(=O)CCN4CCCC4)ccc23)cc1: 53.8

GET /values?readout=viability, T/C&item= CC[C@@]1(O)C(=O)OCc2c1cc1n(c2=O)Cc2cc3c(CN(C)C)c(O)ccc3nc2-1 + CN(C)c1ccc(Nc2c3ccc(NC(=O)CCN4CCCC4)cc3nc3cc(NC(=O)CCN4CCCC4)ccc23)cc1
104

GET /values?readout=viability, T/C&item= CCc1c2c(nc3ccc(O)cc13)-c1cc3c(c(=O)n1C2)COC(=O)[C@]3(O)CC + Cc1cnc(CNC(=O)c2c(=O)c3ccc(N4CCCN(C)CC4)nc3n3c2sc2ccccc23)cn1
38.5

GET /values?readout=viability, T/C&item= Cc1[nH]c2ccccc2c1CCNCc1ccc(/C=C/C(=O)NO)cc1 + Cc1[nH]c2ccc(F)cc2c1-c1nc2c3cccnc3c3ncccc3c2[nH]1
97.8

GET /values?readout=viability, T/C&item= Cc1[nH]c2ccccc2c1CCNCc1ccc(/C=C/C(=O)NO)cc1 + CN(C)c1ccc(Nc2c3ccc(NC(=O)CCN4CCCC4)cc3nc3cc(NC(=O)CCN4CCCC4)ccc23)cc1
99.6

GET /values?readout=viability, T/C&item= Cn1ncnc1[C@H]1c2n[nH]c(=O)c3cc(F)cc(c23)N[C@@H]1c1ccc(F)cc1 + Cc1[nH]c2ccc(F)cc2c1-c1nc2c3cccnc3c3ncccc3c2[nH]1
90.5

GET /values?readout=viability, T/C&item= CC[C@@]1(O)C(=O)OCc2c1cc1n(c2=O)Cc2cc3c(CN(C)C)c(O)ccc3nc2-1 + Cc1cnc(CNC(=O)c2c(=O)c3ccc(N4CCCN(C)CC4)nc3n3c2sc2ccccc23)cn1
71

GET /values?readout=viability, T/C&item= Cc1[nH]c2ccccc2c1CCNCc1ccc(/C=C/C(=O)NO)cc1 + Cc1cnc(CNC(=O)c2c(=O)c3ccc(N4CCCN(C)CC4)nc3n3c2sc2ccccc23)cn1
37.9

GET /values?readout=viability, T/C&item= Cn1ncnc1[C@H]1c2n[nH]c(=O)c3cc(F)cc(c23)N[C@@H]1c1ccc(F)cc1 + Cc1cnc(CNC(=O)c2c(=O)c3ccc(N4CCCN(C)CC4)nc3n3c2sc2ccccc23)cn1
79

GET /values?readout=viability, T/C&item= CCc1c2c(nc3ccc(O)cc13)-c1cc3c(c(=O)n1C2)COC(=O)[C@]3(O)CC + Cc1[nH]c2ccc(F)cc2c1-c1nc2c3cccnc3c3ncccc3c2[nH]1
46.8
